Quick reference: pIC50 of the listed items.
TARGET OF ASSAY: UniProtKB Q6PFW1
Sequence (Q6PFW1 1-1433): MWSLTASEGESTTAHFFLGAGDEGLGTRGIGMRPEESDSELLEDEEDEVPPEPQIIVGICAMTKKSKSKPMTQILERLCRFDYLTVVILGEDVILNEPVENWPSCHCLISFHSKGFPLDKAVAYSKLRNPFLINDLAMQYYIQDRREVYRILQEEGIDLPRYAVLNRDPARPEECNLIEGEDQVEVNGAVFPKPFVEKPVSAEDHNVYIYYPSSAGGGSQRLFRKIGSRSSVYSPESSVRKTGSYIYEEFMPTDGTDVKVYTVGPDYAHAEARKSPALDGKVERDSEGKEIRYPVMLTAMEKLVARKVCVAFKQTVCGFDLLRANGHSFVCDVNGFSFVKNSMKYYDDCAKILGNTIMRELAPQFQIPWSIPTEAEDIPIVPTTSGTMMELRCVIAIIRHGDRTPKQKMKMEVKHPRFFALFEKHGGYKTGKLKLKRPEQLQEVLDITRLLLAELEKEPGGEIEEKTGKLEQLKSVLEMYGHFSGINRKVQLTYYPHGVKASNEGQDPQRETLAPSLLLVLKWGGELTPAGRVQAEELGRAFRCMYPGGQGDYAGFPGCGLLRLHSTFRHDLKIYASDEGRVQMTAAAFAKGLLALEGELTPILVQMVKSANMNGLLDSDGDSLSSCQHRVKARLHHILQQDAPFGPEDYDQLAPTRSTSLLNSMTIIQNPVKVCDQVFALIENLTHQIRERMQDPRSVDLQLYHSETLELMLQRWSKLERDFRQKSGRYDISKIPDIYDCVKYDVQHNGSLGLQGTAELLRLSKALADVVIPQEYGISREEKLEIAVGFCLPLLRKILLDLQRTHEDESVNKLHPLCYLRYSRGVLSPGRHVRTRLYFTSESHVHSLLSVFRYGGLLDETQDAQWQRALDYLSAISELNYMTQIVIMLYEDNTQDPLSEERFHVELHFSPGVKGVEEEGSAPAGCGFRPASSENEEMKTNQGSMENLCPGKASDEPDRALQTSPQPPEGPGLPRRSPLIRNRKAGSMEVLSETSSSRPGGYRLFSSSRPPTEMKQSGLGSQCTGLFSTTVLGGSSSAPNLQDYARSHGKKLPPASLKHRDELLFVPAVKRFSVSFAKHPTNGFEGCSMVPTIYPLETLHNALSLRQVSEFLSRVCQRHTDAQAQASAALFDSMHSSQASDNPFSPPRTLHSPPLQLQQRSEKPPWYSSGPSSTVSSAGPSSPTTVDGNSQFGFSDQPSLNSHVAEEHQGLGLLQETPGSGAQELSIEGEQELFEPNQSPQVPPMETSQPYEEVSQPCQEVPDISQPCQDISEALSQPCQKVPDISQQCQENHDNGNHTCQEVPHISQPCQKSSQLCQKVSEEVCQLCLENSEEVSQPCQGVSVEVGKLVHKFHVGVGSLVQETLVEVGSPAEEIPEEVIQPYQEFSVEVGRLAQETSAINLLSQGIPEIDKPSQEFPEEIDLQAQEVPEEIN
pIC50: −log10 of the molar value.
MEASUREMENT NAME: pIC50

[[record]]
compound = "CCCCCCCC(=O)OC[C@H](COP(=O)(O)O[C@H]1[C@H](O)[C@@H](OP(=O)(O)O)[C@H](OP(=O)(O)O)[C@@H](OP(=O)(O)O)[C@H]1O)OC(=O)CCCCCCC [C8-PtdIns(3,4,5)P3]"
measurement_name = "pIC50"
result_value = "~4.46"

[[record]]
compound = "CCCCCCCC(=O)OC[C@H](COP(=O)(O)O[C@@H]1[C@H](O)[C@H](O)[C@@H](OP(=O)(O)O)[C@H](OP(=O)(O)O)[C@H]1O)OC(=O)CCCCCCC [C8-PtdIns(4,5)P2]"
measurement_name = "pIC50"
result_value = "~4.40"

[[record]]
compound = "CCCCCCCC(=O)OC[C@H](COP(=O)(O)O[C@H]1[C@H](O)[C@@H](O)[C@H](OP(=O)(O)O)[C@@H](OP(=O)(O)O)[C@H]1O)OC(=O)CCCCCCC [C8-PtdIns(3,4)P2]"
measurement_name = "pIC50"
result_value = "~4.60"

